Species on record: Rattus norvegicus
Test: Open TG-GATES - Regimen: Single
Assay type: toxicity, organism-based, Sprague-Dawley
Design: regimen Single, gender Male, age 6 weeks
Settings: in vivo, po, 0 mg/kg, 3 h, tissue Blood, route gavage, dose level Control
measurement type: Hb (g/dL)
Could you give me the number in g/dL? Just the number is fine.

Illustrative cases are given below, each with its answer.
compound	value units	quantitative readout
O=c1ccc2ccccc2o1	g/dL	13.5
NS(=O)(=O)c1cc(C(=O)O)c(NCc2ccco2)cc1Cl [FUROSEMIDE]	g/dL	13.2
CC(S)C(=O)NCC(=O)O (stereo not drawn)	g/dL	13.1
CCN(CC)C(=S)SSC(=S)N(CC)CC	g/dL	13.2
CN(C/C=C/C#CC(C)(C)C)Cc1cccc2ccccc12	g/dL	13.2
CCCCNC(=O)NS(=O)(=O)c1ccc(C)cc1 [TOLBUTAMIDE]	g/dL	13.7

# input for lookup
Prompt line: # get_value(readout='Hb', item= O=C(O)c1ccccc1Nc1ccccc1 )
Response line: 13.1

Cited source: ChEMBL document CHEMBL3885861
